assay_remarks: L6 cytotoxicity assay
Format: cell-based, rat
settings: rat, L6 rat skeletal myoblast cells; mean of duplicate assays
endpoint_label: IC50 (nM)
Number in nM, nothing else.

Exercise: Given the entry O=C1C2=C3C4=[N+](CCc5c[nH]c1c54)C1(O)CCC3(CCN2)CC1 [Compound 7, Discorhabdin C Hydrogenation Product] , report its measured IC50.
Key: 1700
